src = the supplement of paper PMC12042874

Catalogue of substances with associated amyloid nucleation score
# experimental.details: amyloid nucleation score (Sup35N fusion, yeast selection) (log enrichment); library NNK2; higher = more nucleation; inactive = no reads after selection;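 further: zero at mode of non-aggregating sequences after 7 days selection at 30°C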
Write the number on its own, no unit after it.

Reference set, count: 5
substance	amyloid nucleation score
FEKEWYSGLCFARAVARGMR	2.97
LDGITSIDG	-1.15
CLVWLDI	-1.11
TCCKLEDSYSWSALKLTSLA	1.27
SGHTRVGDFSF	0.158

Documented amyloid nucleation score of HNYIWARTRSRGRPMYSVPA : 0.798

Documented amyloid nucleation score of RGSVNCGLFLSRKSDASGRG : 0.234

Documented amyloid nucleation score of KLFQNHLIINCPAMVISNEQ : 7.61

Documented amyloid nucleation score of MLYSWKFPEVASGNLKCRLE : -0.24

Documented amyloid nucleation score of EFLLYRTSVP : -0.205

Documented amyloid nucleation score of SKYMRFGDTFLFARMHGKGD : 4.49

Documented amyloid nucleation score of EGRVFTGEGRYECCSCFGLL : -0.752

Documented amyloid nucleation score of VRFLVISINAYSVDVPHISI : -1.63

Documented amyloid nucleation score of NQWDPMFDRIPTMAALAGPG : 3.4

###

Catalogue of substances with associated amyloid nucleation score
# experimental.details: amyloid nucleation score (Sup35N fusion, yeast selection) (log enrichment); library NNK2; higher = more nucleation; inactive = no reads after selection
Write the number on its own, no unit after it.

substance	quantitative.result
SEEIGLT	0.426
CACDNHIVNRSESHCYGSLR	-0.293

Documented amyloid nucleation score of MEPSVIRF : -0.271

Documented amyloid nucleation score of REFQWCRSLMRYVRGWLVV : 3.19

Documented amyloid nucleation score of FISTGRHTICDIVAHNADLF : -0.305

Documented amyloid nucleation score of MCSQGCTHFRVAWPLRACRW : 3.85

Documented amyloid nucleation score of DYYNRVISASVYSLGGCC : 2.82

Documented amyloid nucleation score of LFVCNSMP : 0.35

Documented amyloid nucleation score of FRYLYVLYGFYMVVTWYLRV : -0.088

Documented amyloid nucleation score of YNCGSLILNRISSGL : -2.21

Documented amyloid nucleation score of YGQSRANDTDDPGWGTVMRL : 0.3

Documented amyloid nucleation score of SDAFGRRHSSLAM : 1.56

Documented amyloid nucleation score of SQPSDWVYFNVGYCCVLMCL : 9.4

Documented amyloid nucleation score of LIMLASSLWTRKGGDTST : 6.29

Documented amyloid nucleation score of LLPSHISASNHIWWLKTS : 0.307

###

# experimental.details: amyloid nucleation score (Sup35N fusion, yeast selection) (log enrichment); library NNK1; higher = more nucleation; inactive = no reads after selection
Catalogue of substances with associated amyloid nucleation score
Write the number on its own, no unit after it.

substance	amyloid nucleation score
LANIYSSNVDISFFDPYCST	4.35
ACANLKSGIFKRFFTSCSGT	-0.959
LVVFISRVFTNDITFRFANI	0.675
ELASSLIVFVDFSRACELNL	4.95
SMIGCYMTF	0.073

Documented amyloid nucleation score of FRFGTA : 0.39

Documented amyloid nucleation score of GAKYMNMRIRRTSFGSAYQS : 0.335

Documented amyloid nucleation score of EHLVHLYKFSSAFERVGW : -0.352
